# Assayed system: AuroraA-TPX2 (Homo sapiens)
# Construct: 20 µL of AuroraA-TPX2 KD GST; GST
# Method description: AuroraA-TPX2 Homogeneous Time Resolved Fluorescent (HTRF) kinase assay
# Type: biochemical
# Condition parameters: average; given as class symbols; read-out: AurA/TP X2_ IC50_IP (Avg)
pIC50: −log10 of the molar value.
// reported pIC50 for each item listed

Here's what some known entries look like.
Form field: pIC50 recorded for CCc1cc(-c2ccccc2)nnc1Nc1ccc(Oc2ncccc2-c2ccnc(NCCCN3CCN(C)CC3)n2)nc1 with AuroraA-TPX2 (Homo sapiens) (enter value)
≥ 7.00

Form field: pIC50 recorded for COc1cccc(-c2nnc(Nc3ccc(Oc4ncccc4-c4ccnc(NCCCN5CCNCC5)n4)cc3)c3ccccc23)n1 with AuroraA-TPX2 (Homo sapiens) (enter value)
≥ 7.00

Form field: pIC50 recorded for CC(O)c1cccc(-c2nnc(Nc3ccc(Oc4ncccc4-c4ccnc(N)n4)cc3)c3ccccc23)c1 (stereo not drawn) with AuroraA-TPX2 (Homo sapiens) (enter value)
≥ 7.00

Form field: pIC50 recorded for Cc1ccnc(-c2nnc(Nc3ccc(Oc4ncccc4-c4ccnc(N)n4)nc3)c3ccccc23)c1 with AuroraA-TPX2 (Homo sapiens) (enter value)
6.30 to 7.00

Form field: pIC50 recorded for Nc1nccc(-c2cccnc2Oc2ccc(Nc3nnc(-c4ccccn4)c4ccccc34)cc2)n1 with AuroraA-TPX2 (Homo sapiens) (enter value)
≥ 7.00

Form field: pIC50 recorded for Oc1nccc(-c2cccnc2Oc2ccc(Nc3nnc(-c4ccccc4)c4ccccc34)cc2)n1 with AuroraA-TPX2 (Homo sapiens) (enter value)
5.60 to 6.30

Form field: pIC50 recorded for Nc1nccc(-c2cccnc2Oc2ccc(Nc3nnc(-c4ccc(CO)cc4)c4ccccc34)cc2)n1 with AuroraA-TPX2 (Homo sapiens) (enter value)
≥ 7.00

Form field: pIC50 recorded for c1ccc(-c2nnc(Nc3ccc(Oc4ncccc4-c4ccnc(NCCCN5CCNCC5)n4)nc3)c3ccccc23)cc1 with AuroraA-TPX2 (Homo sapiens) (enter value)
≥ 7.00

---
Form field: pIC50 recorded for O=C(O)CCNc1nccc(-c2cccnc2Oc2ccc(Nc3nnc(-c4ccccc4)c4ccccc34)cc2)n1 with AuroraA-TPX2 (Homo sapiens) (enter value)
6.30 to 7.00

Form field: pIC50 recorded for Cc1ccnc(-c2nnc(Nc3ccc(Oc4ncccc4-c4ccnc(N)n4)cc3)c3ccccc23)c1 with AuroraA-TPX2 (Homo sapiens) (enter value)
6.30 to 7.00

Form field: pIC50 recorded for CN(C)C1CCN(CCCNc2nccc(-c3cccnc3Oc3ccc(Nc4nnc(-c5ccccc5)c5ccccc45)cc3)n2)C1 (stereo not drawn) with AuroraA-TPX2 (Homo sapiens) (enter value)
≥ 7.00

Form field: pIC50 recorded for CN1CCN(CCCNc2nccc(-c3cccnc3Oc3ccc(Nc4nnc(-c5ccccn5)c5ccccc45)cc3)n2)CC1 with AuroraA-TPX2 (Homo sapiens) (enter value)
6.30 to 7.00

Form field: pIC50 recorded for Nc1nccc(-c2cccnc2Oc2ccc(Nc3nnc(-c4cccc(CO)n4)c4ccccc34)cc2)n1 with AuroraA-TPX2 (Homo sapiens) (enter value)
≥ 7.00

Form field: pIC50 recorded for CC(C)c1nnc(Nc2ccc(Oc3ncccc3-c3ccnc(N)n3)cc2)c2ccccc12 with AuroraA-TPX2 (Homo sapiens) (enter value)
6.30 to 7.00

Form field: pIC50 recorded for Nc1nccc(-c2cccnc2Oc2ccc(Nc3nnc(N4CCCC(CO)C4)c4ccccc34)cc2)n1 (stereo not drawn) with AuroraA-TPX2 (Homo sapiens) (enter value)
≥ 7.00

###

// reported IC50 for each item listed
# Assayed system: AuroraA-TPX2 (Homo sapiens, UniProt O14965)
# Construct: 20 µL of AuroraA-TPX2 KD GST; GST
# Method description: AuroraA-TPX2 Homogeneous Time Resolved Fluorescent (HTRF) kinase assay
# Format: biochemical
# Condition parameters: average; given as class symbols; read-out: AurA/TP X2_ IC50_IP (Avg)

Here's what some known entries look like.
Suppose we examine the compound Nc1cc(-c2cccnc2Oc2ccc(Nc3nnc(-c4ccccc4O)c4ccccc34)cc2)ccn1 [compound 371] ; what IC50 value has been reported?
100 to 500 nM

Suppose we examine the compound Cc1cc(-c2ccccc2)nnc1Nc1ccc(Oc2ncccc2-c2ccnc(NCCCN3CCCC3)n2)cc1 [compound 425] ; what IC50 value has been reported?
≤ 100 nM

Suppose we examine the compound Cc1cc(-c2ccccc2)nnc1Nc1ccc(Oc2ncccc2-c2ccnc(NCCCN3CCN(C)CC3)n2)nc1 [compound 280] ; what IC50 value has been reported?
≤ 100 nM

Suppose we examine the compound OCC(O)CNc1nccc(-c2cccnc2Oc2ccc(Nc3nnc(-c4ccccc4)c4ccccc34)cc2)n1 (stereo not drawn) [compound 337] ; what IC50 value has been reported?
≤ 100 nM

Suppose we examine the compound CC1CN(CCCNc2nccc(-c3cccnc3Oc3ccc(Nc4nnc(-c5ccccc5)c5ccccc45)cc3)n2)CC(C)O1 (stereo not drawn) [compound 326] ; what IC50 value has been reported?
≤ 100 nM

---
Suppose we examine the compound Nc1nccc(-c2cccnc2Oc2ccc(Nc3nnc(N4CCN5CCC[C@H]5C4)c4ccccc34)cn2)n1 [compound 402] ; what IC50 value has been reported?
≤ 100 nM

Suppose we examine the compound FC1CCCN(CCCNc2nccc(-c3cccnc3Oc3ccc(Nc4nnc(-c5ccccc5)c5ccccc45)cc3)n2)C1 (stereo not drawn) [compound 452] ; what IC50 value has been reported?
≤ 100 nM

Suppose we examine the compound COc1ccc(F)cc1-c1nnc(Nc2ccc(Oc3ncccc3-c3ccnc(N)n3)nc2)c2ccccc12 [compound 381] ; what IC50 value has been reported?
100 to 500 nM

Suppose we examine the compound CC(C)c1nnc(Nc2ccc(Oc3ncccc3-c3ccnc(N)n3)nc2)c2ccccc12 [compound 269] ; what IC50 value has been reported?
≤ 100 nM

Suppose we examine the compound Nc1nccc(-c2ccccc2Oc2ccc(Nc3nnc(-c4ccccc4)c4ccccc34)cc2)n1 [compound 254] ; what IC50 value has been reported?
≤ 100 nM

Suppose we examine the compound Nc1nccc(-c2cccnc2Oc2ccc(Nc3nnc(-c4ccccc4OC(F)(F)F)c4ccccc34)cn2)n1 [compound 383] ; what IC50 value has been reported?
500 to 2500 nM

Suppose we examine the compound Nc1nccc(-c2cccnc2Oc2ccc(Nc3nnc(-c4ccccc4)c4ccsc34)cn2)n1 [compound 313] ; what IC50 value has been reported?
≤ 100 nM

Suppose we examine the compound c1ccc(-c2nnc(Nc3ccc(Oc4ncccc4-c4ccnc(NCCCN5CCNCC5)n4)cc3)c3ccccc23)cc1 [compound 340] ; what IC50 value has been reported?
≤ 100 nM

Suppose we examine the compound COc1ccc(-c2nnc(Nc3ccc(Oc4ncccc4-c4ccnc(N)n4)cc3)c3ccccc23)cc1 [compound 320] ; what IC50 value has been reported?
≤ 100 nM

Suppose we examine the compound Cc1csc(-c2nnc(Nc3ccc(Oc4ncccc4-c4c[nH]nc4N)cc3)c3ccccc23)c1 [compound 307] ; what IC50 value has been reported?
≤ 100 nM

Suppose we examine the compound C[C@@H]1CN(c2nnc(Nc3ccc(Oc4ncccc4-c4ccnc(N)n4)cc3)c3ccccc23)CCN1 [compound 399] ; what IC50 value has been reported?
500 to 2500 nM

Suppose we examine the compound Nc1nccc(-c2cccnc2Oc2ccc(Nc3nnc(-c4cccc(OP(=O)(O)O)c4)c4ccccc34)cc2)n1 [compound 366] ; what IC50 value has been reported?
100 to 500 nM

Suppose we examine the compound Cc1csc(-c2nnc(Nc3ccc(Oc4ncccc4-c4ccnc(N)c4)cc3)c3ccccc23)n1 [compound 345] ; what IC50 value has been reported?
≤ 100 nM

Suppose we examine the compound Nc1nccc(-c2cccnc2Oc2ccc(Nc3nnc(-c4cccc(OP(=O)(O)O)c4)c4ccccc34)cn2)n1 [compound 392] ; what IC50 value has been reported?
500 to 2500 nM

Suppose we examine the compound CCN(CC)CCCNc1nccc(-c2cccnc2Oc2ccc(Nc3nnc(-c4ccccc4)cc3C)cc2)n1 [compound 426] ; what IC50 value has been reported?
≤ 100 nM

###

# Assayed system: AuroraB (Homo sapiens, UniProt Q96GD4)
# Construct: 20 µL of AuroraB FL His; His
# Sequence (Q96GD4 whole entry): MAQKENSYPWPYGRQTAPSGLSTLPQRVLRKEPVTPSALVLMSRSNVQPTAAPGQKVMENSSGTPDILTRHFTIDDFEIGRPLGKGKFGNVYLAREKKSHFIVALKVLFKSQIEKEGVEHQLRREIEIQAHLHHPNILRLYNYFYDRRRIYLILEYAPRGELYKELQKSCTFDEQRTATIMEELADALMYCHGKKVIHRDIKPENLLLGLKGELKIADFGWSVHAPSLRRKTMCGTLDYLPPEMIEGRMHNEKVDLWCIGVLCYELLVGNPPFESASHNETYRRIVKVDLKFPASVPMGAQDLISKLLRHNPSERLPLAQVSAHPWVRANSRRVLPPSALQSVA
# Method description: AuroraB Homogeneous Time Resolved Fluorescent (HTRF) kinase assay
# Type: biochemical
# Condition parameters: read-out: inhibitory activity (IC50) in the Aurora kinase B HTRF assay
# Experimental: AuroraB-Homogeneous Time Resolved Fluorescent (HTRF) Kinase Assay: The AuroraB HTRF assay begins with AuroraB in the presence of ATP phosphorylating the biotinylated peptide Histone H3. […] The assay is quenched and stopped with 160 µL of detection reagent. […] Added to this buffer prior to reading is Steptavidin allophycocyanin (SA-APC) at a final conc in the assay of 0.001 mg/mL, and europilated anti-phosphoHistoneH3 Ab (Eu-anti-HisH3) at a final conc of 0.064 nM. […]
Property name: IC50

Suppose we examine the molecule Nc1[nH]ncc1-c1cccnc1Oc1ccc(Nc2nnc(-c3ccccc3)c3ccccc23)cc1 [Example 238] ; what IC50 value has been reported?
< 500 nM

###

// reported pIC50 for each item listed
# Assayed system: AuroraA-TPX2 (Homo sapiens, UniProt O14965)
# Construct: 20 µL of AuroraA-TPX2 KD GST; GST
# Sequence (O14965 133-383 limits assumed): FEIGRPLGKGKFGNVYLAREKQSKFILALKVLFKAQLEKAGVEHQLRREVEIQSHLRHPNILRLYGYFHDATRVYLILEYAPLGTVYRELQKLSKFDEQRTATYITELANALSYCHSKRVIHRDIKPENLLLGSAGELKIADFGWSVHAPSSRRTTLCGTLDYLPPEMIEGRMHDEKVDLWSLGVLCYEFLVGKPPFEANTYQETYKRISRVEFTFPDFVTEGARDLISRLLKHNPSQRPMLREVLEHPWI
# Sequence (Q9ULW0 1-43 partner limits assumed): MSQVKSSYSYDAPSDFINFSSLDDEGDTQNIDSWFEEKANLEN
# Method description: AuroraA-TPX2 Homogeneous Time Resolved Fluorescent (HTRF) kinase assay
# Assay type: biochemical
# Condition parameters: average; given as class symbols; read-out: AurA/TP X2_ IC50_IP (Avg)
pIC50: −log10 of the molar value.

Suppose we examine the molecule C[C@H](O)c1cccc(-c2nnc(Nc3ccc(Oc4ncccc4-c4ccnc(N)n4)cc3)c3ccccc23)c1 [compound 360] ; what pIC50 value has been reported?
≥ 7.00

---
Suppose we examine the molecule Cc1cc(-c2ccccc2)nnc1Nc1ccc(Oc2ncccc2-c2ccncc2)cc1 [compound 417] ; what pIC50 value has been reported?
≥ 7.00

Suppose we examine the molecule Cc1csc(-c2nnc(Nc3ccc(Oc4ncccc4-c4c[nH]nc4N)c(F)c3)c3ccccc23)n1 [compound 312] ; what pIC50 value has been reported?
≥ 7.00

Suppose we examine the molecule Nc1nccc(-c2cccnc2Oc2ccc(Nc3ncc(-c4ccccc4)c4ccccc34)cn2)n1 [compound 266] ; what pIC50 value has been reported?
≥ 7.00
